# procedure_details: Equilibrium solubility in simulated intestinal fluid, dual level DoE, fed arm
# Format: physicochemical
# experimental_conditions: fed, current study (Figure 3)
experimental_readout: statistical significance of DoE factor pH on equilibrium solubility

Sample records with statistical significance of DoE factor pH on equilibrium solubility:
Challenge: Name the recorded statistical significance of DoE factor pH on equilibrium solubility of the compound listed here: COc1ccccc1OCCNCC(O)COc1cccc2[nH]c3ccccc3c12 (centres unmarked) [carvedilol]
Response given: NS ^e ^g

Challenge: Name the recorded statistical significance of DoE factor pH on equilibrium solubility of the compound listed here: CC(C)(Sc1cc(C(C)(C)C)c(O)c(C(C)(C)C)c1)Sc1cc(C(C)(C)C)c(O)c(C(C)(C)C)c1 [probucol]
Response given: NS ^e ^g

Challenge: Name the recorded statistical significance of DoE factor pH on equilibrium solubility of the compound listed here: CCOC(=O)C1=C(C)NC(C)=C(C(=O)OC)C1c1cccc(Cl)c1Cl (centres unmarked) [felodipine]
Response given: NS ^e ^g

Challenge: Name the recorded statistical significance of DoE factor pH on equilibrium solubility of the compound listed here: COc1ccc2c(c1)c(CC(=O)O)c(C)n2C(=O)c1ccc(Cl)cc1 [indomethacin]
Response given: S ^d

Challenge: Name the recorded statistical significance of DoE factor pH on equilibrium solubility of the compound listed here: O=C1NC(=O)C(c2ccccc2)(c2ccccc2)N1 [phenytoin]
Response given: NS ^e ^g

Others:
Challenge: Name the recorded statistical significance of DoE factor pH on equilibrium solubility of the compound listed here: C[C@@H](O[C@H]1OCCN(Cc2n[nH]c(=O)[nH]2)[C@H]1c1ccc(F)cc1)c1cc(C(F)(F)F)cc(C(F)(F)F)c1 [aprepitant]
Response given: NS ^e ^g

Challenge: Name the recorded statistical significance of DoE factor pH on equilibrium solubility of the compound listed here: CN1CC(=O)N2[C@H](c3ccc4c(c3)OCO4)c3[nH]c4ccccc4c3C[C@@H]2C1=O [tadalafil]
Response given: NS ^e

Challenge: Name the recorded statistical significance of DoE factor pH on equilibrium solubility of the compound listed here: COc1cc(C(=O)NS(=O)(=O)c2ccccc2C)ccc1Cc1cn(C)c2ccc(NC(=O)OC3CCCC3)cc12 [zafirlukast]
Response given: NS ^e ^g

====

# procedure_details: Equilibrium solubility in simulated intestinal fluid, dual level DoE, combined fasted and fed arm
# Type: physicochemical
# experimental_conditions: combined arm, eight two way interactions, Figure 4
experimental_readout: significant two way factor interactions on solubility

Challenge: Name the recorded significant two way factor interactions on solubility of the molecule listed here: `O=C1NC(=O)C(c2ccccc2)(c2ccccc2)N1`
Response given: significant interactions

Challenge: Name the recorded significant two way factor interactions on solubility of the molecule listed here: `CC(C)(Sc1cc(C(C)(C)C)c(O)c(C(C)(C)C)c1)Sc1cc(C(C)(C)C)c(O)c(C(C)(C)C)c1`
Response given: significant interactions

Challenge: Name the recorded significant two way factor interactions on solubility of the molecule listed here: `COc1cc(C(=O)NS(=O)(=O)c2ccccc2C)ccc1Cc1cn(C)c2ccc(NC(=O)OC3CCCC3)cc12`
Response given: significant interactions

====

# procedure_details: Equilibrium solubility in simulated intestinal fluid, dual level DoE, fed arm
# Type: physicochemical
# experimental_conditions: fed, current study (Figure 3)
experimental_readout: statistical significance of DoE factor monoglyceride on equilibrium solubility

Sample records with statistical significance of DoE factor monoglyceride on equilibrium solubility:
Challenge: Name the recorded statistical significance of DoE factor monoglyceride on equilibrium solubility of the molecule listed here: C[C@@H](O[C@H]1OCCN(Cc2n[nH]c(=O)[nH]2)[C@H]1c1ccc(F)cc1)c1cc(C(F)(F)F)cc(C(F)(F)F)c1 [aprepitant]
Response given: NS ^e

Challenge: Name the recorded statistical significance of DoE factor monoglyceride on equilibrium solubility of the molecule listed here: CN1CC(=O)N2[C@H](c3ccc4c(c3)OCO4)c3[nH]c4ccccc4c3C[C@@H]2C1=O [tadalafil]
Response given: NS ^e

Challenge: Name the recorded statistical significance of DoE factor monoglyceride on equilibrium solubility of the molecule listed here: O=C1NC(=O)C(c2ccccc2)(c2ccccc2)N1 [phenytoin]
Response given: NS ^e ^g

Challenge: Name the recorded statistical significance of DoE factor monoglyceride on equilibrium solubility of the molecule listed here: COc1ccccc1OCCNCC(O)COc1cccc2[nH]c3ccccc3c12 (centres unmarked) [carvedilol]
Response given: NS ^e ^g

Challenge: Name the recorded statistical significance of DoE factor monoglyceride on equilibrium solubility of the molecule listed here: COc1cc(C(=O)NS(=O)(=O)c2ccccc2C)ccc1Cc1cn(C)c2ccc(NC(=O)OC3CCCC3)cc12 [zafirlukast]
Response given: NS ^e

Others:
Challenge: Name the recorded statistical significance of DoE factor monoglyceride on equilibrium solubility of the molecule listed here: COc1ccc2c(c1)c(CC(=O)O)c(C)n2C(=O)c1ccc(Cl)cc1 [indomethacin]
Response given: NS ^e

Challenge: Name the recorded statistical significance of DoE factor monoglyceride on equilibrium solubility of the molecule listed here: CC(C)(Sc1cc(C(C)(C)C)c(O)c(C(C)(C)C)c1)Sc1cc(C(C)(C)C)c(O)c(C(C)(C)C)c1 [probucol]
Response given: NS ^e ^g
